Reported log10(CLint scaled at 0.08 µM) values for the following molecules.
experiment-notes: Microsomal assays, rat liver microsomes
condition: female, Sprague-Dawley, rat, pH 7.4
Scale type: logarithmic (base 10). Underlying CLint scaled at 0.08 µM unit: mL/min/kg.

For orientation, consider the following solved cases.
COc1ccc(CCCN[C@@H](C)Cc2ccccc2)cc1 [Compound 313] ... 2.99
CC(Cc1cccc(F)c1)NCCCc1ccc(C(N)=O)cc1 (stereo not shown) [Compound 309] ... 1.76
CC(Cc1ccc2nccnc2c1)NCCCc1ccc(C(N)=O)cc1 (stereo not shown) [Compound 307] ... 1.71
CC(Cc1cc(F)cc(F)c1)NCCCc1ccc(C(N)=O)cc1 (stereo not shown) [Compound 300] ... 1.32

Lab note: CC(Cc1ccc2nccnc2c1)NCCCc1ccc(S(N)(=O)=O)cc1 (stereo not shown) [Compound 305] gave log10(CLint scaled at 0.08 µM) of 1.63

For CC(Cc1ccc(F)c(F)c1)NCCCc1ccc2nccnc2c1 (stereo not shown) [Compound 232] the molecule record lists log10(CLint scaled at 0.08 µM) as 2.20
